Target: T1, recombinant human IL-23R/Fc chimera (R&D Systems) (human, UniProt Q5VWK5 24-355)
T1 construct: Bought; also called rhIL23RFc
T1 sequence (looked up): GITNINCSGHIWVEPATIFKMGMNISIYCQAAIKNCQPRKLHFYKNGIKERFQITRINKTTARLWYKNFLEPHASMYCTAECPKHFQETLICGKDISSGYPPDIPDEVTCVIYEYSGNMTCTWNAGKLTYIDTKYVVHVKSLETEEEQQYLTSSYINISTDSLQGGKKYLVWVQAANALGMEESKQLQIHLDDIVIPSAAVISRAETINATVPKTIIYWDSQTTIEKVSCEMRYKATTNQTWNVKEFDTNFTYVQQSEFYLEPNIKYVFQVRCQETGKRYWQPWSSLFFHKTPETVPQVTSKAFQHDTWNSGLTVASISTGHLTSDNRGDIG
Assay: SPR
Consider the following binders; for each one, report its Kd.
Respond numerically; units are nM and should not be typed.

Incoming: Endpoint output: Kd of 056-41.B12F ATRIMER complex (designed binder, Homotrimer of this chain (ATRIMER complex)., not shown: A possible extra N-terminal Ser from the ompA junction is left out) EPPTQKPKKIVNAKKDVVNTKMFEELKSRLDTLAQEVALLKEQQALQTVCLKGTKVHMKCFLAFTQTKTFHEASEDCISRGGTLSTPQTGSENDALYEYLRQSVGNEAEIWLGLNGSVRSATWVDMTGARIAYKNWETEITAQPDGGYGVFGENCAVLSGAANGKWFDKRCRDQLPYICQFGIV . Value?
Outgoing: 2.24

Incoming: What does the data say about its Kd? Entry: 101-54-4A12 ATRIMER complex (designed binder, also called 101-54-4Al2) EPPTQKPKKIVNAKKDVVNTKMFEELKSRLDTLAQEVALLKEQQALQTVCLKGTKVHMKCFLAFTQTKTFHEASEDCISRGGTLSTPQTGSENDALYEYLRQSVGNEAEIWLGLNGSRRSGVWVDMTGARIAYKNWEPPGPAHPQGGFGVFGENCAVLSGAANGKWFDKRCRDQLPYICQFGIV
Outgoing: 0.463

Incoming: Name the reported Kd value associated with the binder 001-69.4G8 ATRIMER complex (designed binder, not shown: C-terminal tag: His/Myc (pANA4) or HA-StrepII (pANA10)) EPPTQKPKKIVNAKKDVVNTKMFEELKSRLDTLAQEVALLKEQQALQTVCLKGTKVHMKCFLAFTQTKTFHEASEDCISRGGTLSTPQTGSENDALYEYLRQSVGNEAEIWLGLNGSRRSGVWVDMTGARIAYKNWETEITAQPDGGFGVFGENCAVLSGAANGKWFDKRCRDQLPYICQFGIV
Outgoing: 7.42
